experiment_summary: supercomplex reporter luminescence per Hoechst cell count – Hoechst nuclei count (AID 1645838);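 note: control cybrid cells; higher means more mitochondrial supercomplex formation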
condition_set: Cells, luminescence/Hoechst cell count ratio, library stock concentration (final well concentration not given) 2 mM, hits give high values
Out of some 2,000 compounds screened, about 100 (5%) were called active. Shown is part of a subset that was picked to be rich in actives.
Decide by z-score: equal to or exceeding -0.1 means met, less means not met.

[
  {
    "compound": "Cc1ccc(C(=O)NCCCCCC(=O)Nc2ccccc2N)cc1",
    "category": "met"
  },
  {
    "compound": "CCCNC(=O)C1OC1C(=O)N[C@@H](C(=O)N1CCCC1C(=O)O)C(C)CC (stereo partly specified)",
    "category": "met"
  },
  {
    "compound": "O=C(NCc1cccnc1)c1ccc(CNS(=O)(=O)c2ccc(F)cc2)cc1",
    "category": "not met"
  },
  {
    "compound": "COc1cc(Nc2ncc(F)c(Nc3ccc4c(n3)NC(=O)C(C)(C)O4)n2)cc(OC)c1OC",
    "category": "met"
  },
  {
    "compound": "CCCC(=O)Nc1nc(-c2ccccc2)cc(-c2ccccc2)n1",
    "category": "not met"
  },
  {
    "compound": "CCN(C)C(=O)Oc1cccc(C(C)N(C)C)c1 (stereo unspecified)",
    "category": "not met"
  },
  {
    "compound": "Cn1c(SCC(=O)N2CCCC2C(=O)Nc2ccccc2-c2ccccc2)nc2ccccc21 (stereo unspecified)",
    "category": "not met"
  },
  {
    "compound": "NCCCCN(Cc1nc2ccccc2[nH]1)C1CCCc2cccnc21 (stereo unspecified)",
    "category": "met"
  },
  {
    "compound": "OCc1cc(C(O)CNCCCCCCOCCCCc2ccccc2)ccc1O (stereo unspecified)",
    "category": "met"
  },
  {
    "compound": "CC(N)c1ccc(C(=O)Nc2ccnc3[nH]ccc23)cc1 (stereo unspecified)",
    "category": "not met"
  },
  {
    "compound": "CC(=O)c1c(C)c2cnc(Nc3ccc(N4CCNCC4)cn3)nc2n(C2CCCC2)c1=O",
    "category": "met"
  },
  {
    "compound": "CC(C)c1ccc(-c2cc(=O)c3ccccc3o2)cc1",
    "category": "met"
  },
  {
    "compound": "CC(=O)Nc1ccc(C(=O)Nc2sc(Nc3ccccc3)nc2C(N)=O)cc1",
    "category": "met"
  },
  {
    "compound": "COc1cc(=C2C=c3ccccc3=N2)[nH]c1=Cc1[nH]c(C)cc1C",
    "category": "met"
  },
  {
    "compound": "Cc1ccc(COC(=O)N2CCC(CNc3ncccn3)C(F)C2)cc1 (stereo unspecified)",
    "category": "not met"
  },
  {
    "compound": "COc1cc(C(=O)N2CCC(N3CCN(C)CC3)CC2)ccc1Nc1ncc2c(n1)N(C)c1ccccc1C(=O)N2C",
    "category": "met"
  },
  {
    "compound": "COC1CC2CCC(C)C(O)(O2)C(=O)C(=O)N2CCCCC2C(=O)OC(C(C)CC2CCC(O)C(OC)C2)CC(=O)C(C)C=C(C)C(O)C(OC)C(=O)C(C)CC(C)C=CC=CC=C1C (stereo unspecified)",
    "category": "met"
  },
  {
    "compound": "CCOc1ccc(S(=O)(=O)N(CC(=O)N=Nc2c(O)[nH]c3ccccc23)c2ccccc2)cc1",
    "category": "met"
  },
  {
    "compound": "CC(C)(C)c1ccc(S(=O)(=O)NCc2ccc(C(=O)Nc3cccnc3)cc2)cc1",
    "category": "met"
  },
  {
    "compound": "CCC(C)(C)C(=O)OC1CC(C)C=C2C=CC(C)C(CCC3CC(O)CC(=O)O3)[C@H]21 (stereo partly specified)",
    "category": "not met"
  },
  {
    "compound": "CCOc1ccc(-n2c(C(C)N(Cc3cccnc3)C(=O)Cc3ccc(F)c(C(F)(F)F)c3)nc3ncccc3c2=O)cc1 (stereo unspecified)",
    "category": "met"
  },
  {
    "compound": "O=c1cc(-c2cccc3c2Sc2ccccc2S3)oc(N2CCOCC2)c1",
    "category": "not met"
  },
  {
    "compound": "COc1cc(C(=O)NC2CCN(C)CC2)ccc1Nc1ncc2c(n1)N(C1CCCC1)C(C)CC(=O)N2C (stereo unspecified)",
    "category": "met"
  },
  {
    "compound": "O=C1C(=Cc2cn(-c3ccccc3)nc2-c2ccc(OCc3ccc(Cl)cc3)cc2)SC(=S)N1CCS(=O)(=O)O",
    "category": "not met"
  },
  {
    "compound": "CCCNC1CCc2nc(N)sc2C1 (stereo unspecified)",
    "category": "not met"
  },
  {
    "compound": "Cn1cncc1[C@@](N)(c1ccc(Cl)cc1)c1ccc2c(c1)c(-c1cccc(Cl)c1)cc(=O)n2C",
    "category": "met"
  },
  {
    "compound": "CC(C)(C)OC(=O)N1CCC(OC2CCNCC2)CC1",
    "category": "met"
  },
  {
    "compound": "c1ccc(Cc2ccncc2)cc1",
    "category": "not met"
  },
  {
    "compound": "O=C(O)c1ccc(Nc2ncc3c(n2)-c2ccc(Cl)cc2C(c2c(F)cccc2F)=NC3)cc1",
    "category": "met"
  },
  {
    "compound": "COc1ccc2c(c1)CN(C)CCS2",
    "category": "not met"
  },
  {
    "compound": "COC(=O)C(CCSC)NC(=O)c1ccc(NCC(N)CS)cc1-c1ccccc1 (stereo unspecified)",
    "category": "not met"
  },
  {
    "compound": "COc1cc2c(NC3CCN(CC4CCCCC4)CC3)nc(N3CCCN(C(C)C)CC3)nc2cc1OCCCN1CCCCC1",
    "category": "met"
  },
  {
    "compound": "CC(Cc1cc2c(c(C(N)=O)c1)N(CCCO)CC2)NCCOc1ccccc1OCC(F)(F)F (stereo unspecified)",
    "category": "not met"
  },
  {
    "compound": "NC(N)=NN=Cc1ccc(Cl)c(Cl)c1",
    "category": "not met"
  },
  {
    "compound": "NC(=O)c1cnc(NC2CCCCC2N)nc1Nc1cccc(-n2nccn2)c1 (stereo unspecified)",
    "category": "met"
  },
  {
    "compound": "CC1CN(CC(=O)Nc2ccc3c(c2)Cc2cccc(-c4cc(=O)cc(N5CCOCC5)o4)c2S3)CC(C)O1 (stereo unspecified)",
    "category": "met"
  },
  {
    "compound": "Cc1c(Cc2ccc3ccccc3n2)c2cc(F)ccc2n1CC(=O)O",
    "category": "not met"
  },
  {
    "compound": "CCCCCCNC(=O)Nc1ccc(S(=O)(=O)Nc2ccc(CCNCC(O)COc3ccc(O)cc3)cc2)cc1 (stereo unspecified)",
    "category": "not met"
  },
  {
    "compound": "CC(O)C(O)C1CNc2nc(N)[nH]c(=O)c2N1 (stereo unspecified)",
    "category": "not met"
  },
  {
    "compound": "Cc1c(-c2ccc(-c3ccccc3F)cc2)nc2ccc(F)cc2c1C(=O)O",
    "category": "met"
  }
]
